Values from patent US20210253718A1

Listing: median fluorescence of selected binders
Target: T1, FZD6 cysteine-rich domain (CRD), MYC-tagged and GPI-anchored on CHO cells (human, UniProt O60353 20-146, GPI anchor)
T1 construct: also called FZD6 CRD; CHO-myc-FZDGPI; not shown: MYC tag and GPI anchor signal
T1 sequence: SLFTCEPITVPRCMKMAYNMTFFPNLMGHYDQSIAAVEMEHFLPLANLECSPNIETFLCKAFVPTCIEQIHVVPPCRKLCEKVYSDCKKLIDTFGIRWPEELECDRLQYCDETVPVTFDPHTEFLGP
Experiment: flow cytometry, CHO-CRD cells;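 further: flow cytometry of Fab binding to CHO cells overexpressing a Frizzled CRD, with binding defined as median fluorescence over twice that of CHO cells lacking any Frizzled CRD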
Just the number, please, no unit attached.

binder	measurement
Fab-2927 (Fab, V domains shown, Fab; also called Fv-2927) VH: EVQLVESGGGLVQPGGSLRLSCAASGFNIYYSSMHWVRQAPGKGLEWVASIYPSYGYTSYADSVKGRFTISADTSKNTAYLQMNSLRAEDTAVYYCARYGYYGFDYWGQGTLVTVSS VL: DIQMTQSPSSLSASVGDRVTITCRASQSVSSAVAWYQQKPGKAPKLLIYSASSLYSGVPSRFSGSRSGTDFTLTISSLQPEDFATYYCQQWGSHGYLITFGQGTKVEIK	3.05
Fab-2914 (Fab, V domains shown, Fab; also called Fv-2914) VH: EVQLVESGGGLVQPGGSLRLSCAASGFNIYYSYMHWVRQAPGKGLEWVASIYPSSSSTSYADSVKGRFTISADTSKNTAYLQMNSLRAEDTAVYYCARGAMDYWGQGTLVTVSS VL: DIQMTQSPSSLSASVGDRVTITCRASQSVSSAVAWYQQKPGKAPKLLIYSASSLYSGVPSRFSGSRSGTDFTLTISSLQPEDFATYYCQQWYYGSLITFGQGTKVEIK	3.59
Fab-2921 (Fab, V domains shown, Fab) VH: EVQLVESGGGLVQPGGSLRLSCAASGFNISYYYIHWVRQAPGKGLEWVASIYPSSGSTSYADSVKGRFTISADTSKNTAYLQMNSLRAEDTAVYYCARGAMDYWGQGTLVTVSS VL: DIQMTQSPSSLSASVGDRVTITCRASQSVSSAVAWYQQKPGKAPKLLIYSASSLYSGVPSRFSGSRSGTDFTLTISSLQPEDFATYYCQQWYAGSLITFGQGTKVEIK	2.67
Fab-2899 (Fab, V domains shown, Fab; also called Fv-2899) VH: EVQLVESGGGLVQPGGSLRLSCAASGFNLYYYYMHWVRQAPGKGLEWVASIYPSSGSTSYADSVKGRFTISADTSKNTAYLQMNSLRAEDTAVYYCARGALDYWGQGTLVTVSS VL: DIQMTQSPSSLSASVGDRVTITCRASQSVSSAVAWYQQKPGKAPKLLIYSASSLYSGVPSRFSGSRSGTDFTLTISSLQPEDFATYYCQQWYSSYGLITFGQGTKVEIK	4.37
Fab-2934 (Fab, V domains shown, Fab; also called Fv-2934) VH: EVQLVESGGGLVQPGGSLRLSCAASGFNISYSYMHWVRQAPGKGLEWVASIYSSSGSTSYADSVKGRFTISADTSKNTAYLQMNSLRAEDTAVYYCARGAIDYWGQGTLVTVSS VL: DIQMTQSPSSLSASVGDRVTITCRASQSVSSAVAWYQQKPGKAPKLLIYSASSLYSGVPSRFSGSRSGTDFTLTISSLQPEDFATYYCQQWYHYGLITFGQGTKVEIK	2.86

Ask | # median fluorescence lookup, item Fab-2918 (Fab, V domains shown, Fab; also called Fv-2918) VH: EVQLVESGGGLVQPGGSLRLSCAASGFNLSYSSIHWVRQAPGKGLEWVASIYSSYSSTSYADSVKGRFTISADTSKNTAYLQMNSLRAEDTAVYYCARFGYWAIDYWGQGTLVTVSS VL: DIQMTQSPSSLSASVGDRVTITCRASQSVSSAVAWYQQKPGKAPKLLIYSASSLYSGVPSRFSGSRSGTDFTLTISSLQPEDFATYYCQQAFGASLFTFGQGTKVEIK
Reply | 2.69

Ask | # median fluorescence lookup, item Fab-2932 (Fab, V domains shown, Fab; also called Fv-2932) VH: EVQLVESGGGLVQPGGSLRLSCAASGFNISYSYMHWVRQAPGKGLEWVASIYSSYSSTSYADSVKGRFTISADTSKNTAYLQMNSLRAEDTAVYYCARGALDYWGQGTLVTVSS VL: DIQMTQSPSSLSASVGDRVTITCRASQSVSSAVAWYQQKPGKAPKLLIYSASSLYSGVPSRFSGSRSGTDFTLTISSLQPEDFATYYCQQWYGSFALITFGQGTKVEIK
Reply | 3.11

Ask | # median fluorescence lookup, item Fab-2910 (Fab, V domains shown, Fab) VH: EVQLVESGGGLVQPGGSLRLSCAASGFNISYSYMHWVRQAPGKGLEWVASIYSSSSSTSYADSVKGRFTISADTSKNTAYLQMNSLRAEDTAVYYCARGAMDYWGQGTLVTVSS VL: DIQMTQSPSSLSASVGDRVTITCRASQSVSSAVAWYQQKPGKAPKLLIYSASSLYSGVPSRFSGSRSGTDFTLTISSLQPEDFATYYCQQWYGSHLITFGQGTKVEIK
Reply | 2.79

Ask | # median fluorescence lookup, item Fab-2906 (Fab, V domains shown, Fab; also called Fv-2906) VH: EVQLVESGGGLVQPGGSLRLSCAASGFNFSSSSIHWVRQAPGKGLEWVAYISSSYGYTYYADSVKGRFTISADTSKNTAYLQMNSLRAEDTAVYYCARTVRGSKKPYFSGWAMDYWGQGTLVTVSS VL: DIQMTQSPSSLSASVGDRVTITCRASQSVSSAVAWYQQKPGKAPKLLIYSASSLYSGVPSRFSGSRSGTDFTLTISSLQPEDFATYYCQQWSWGFLITFGQGTKVEIK
Reply | 3.55

Ask | # median fluorescence lookup, item Fab-2933 (Fab, V domains shown, Fab; also called Fv-2933) VH: EVQLVESGGGLVQPGGSLRLSCAASGFNLYSSYMHWVRQAPGKGLEWVASIYSSYGYTSYADSVKGRFTISADTSKNTAYLQMNSLRAEDTAVYYCARTVRGSKKPYFSGWAMDYWGQGTLVTVSS VL: DIQMTQSPSSLSASVGDRVTITCRASQSVSSAVAWYQQKPGKAPKLLIYSASSLYSGVPSRFSGSRSGTDFTLTISSLQPEDFATYYCQQFWWYASWLFTFGQGTKVEIK
Reply | 4.1
